Data origin, for the record: ChEMBL document CHEMBL1122520

Test: Lipophilicity (Rm) (RP-TLC)
Type: physicochemical
RESULT TYPE: Rm

mol=CNc1c2ccccc2nc2c(C(=O)NCCN(C)C)cccc12 result_type=Rm endpoint_value=-1.11
mol=Nc1c2ccccc2nc2c(C(=O)NCCN3CCOCC3)cccc12 result_type=Rm endpoint_value=-1
mol=CCN(CC)CCNC(=O)c1cccc2c(N)c3ccccc3nc12 result_type=Rm endpoint_value=-0.67
mol=Nc1c2ccccc2nc2c(C(=O)NCCN3CCCCC3)cccc12 result_type=Rm endpoint_value=-0.7
mol=CN(C)CCCCCNC(=O)c1cccc2c(N)c3ccccc3nc12 result_type=Rm endpoint_value=-0.73
mol=Nc1c2ccccc2nc2c(C(=O)NCCNCCO)cccc12 result_type=Rm endpoint_value=-1.06
mol=CCNc1c2ccccc2nc2c(C(=O)NCCN(C)C)cccc12 result_type=Rm endpoint_value=-0.88
mol=CN(C)CCCCCCNC(=O)c1cccc2c(N)c3ccccc3nc12 result_type=Rm endpoint_value=-0.58
mol=CN(C)CCCCNC(=O)c1cccc2c(N)c3ccccc3nc12 result_type=Rm endpoint_value=-0.89
mol=CN(C)CCNC(=O)c1ccc2c(N)c3ccccc3nc2c1 result_type=Rm endpoint_value=-1.06
mol=CCCCCCNc1c2ccccc2nc2c(C(=O)NCCN(C)C)cccc12 result_type=Rm endpoint_value=-0.04
mol=Nc1c2ccccc2nc2c(C(=O)NCCc3ccccn3)cccc12 result_type=Rm endpoint_value=-0.57
mol=CN(C)CCNC(=O)c1cccc2c(N)c3ccccc3nc12 result_type=Rm endpoint_value=-1.11
mol=CN(C)CCCCCCCNC(=O)c1cccc2c(N)c3ccccc3nc12 result_type=Rm endpoint_value=-0.44
mol=CCCNc1c2ccccc2nc2c(C(=O)NCCN(C)C)cccc12 result_type=Rm endpoint_value=-0.57
mol=CN(C)CCNC(=O)c1cccc2c(NCCO)c3ccccc3nc12 result_type=Rm endpoint_value=-1.19
mol=CCCCCNc1c2ccccc2nc2c(C(=O)NCCN(C)C)cccc12 result_type=Rm endpoint_value=-0.23
mol=COCCNc1c2ccccc2nc2c(C(=O)NCCN(C)C)cccc12 result_type=Rm endpoint_value=-0.76
mol=CN(C)CCCNC(=O)c1cccc2c(N)c3ccccc3nc12 result_type=Rm endpoint_value=-0.93
mol=NCCNC(=O)c1cccc2c(N)c3ccccc3nc12 result_type=Rm endpoint_value=-1.18
mol=CN(C)CCNC(=O)c1ccc2nc3ccccc3c(N)c2c1 result_type=Rm endpoint_value=-1
mol=CCCCNc1c2ccccc2nc2c(C(=O)NCCN(C)C)cccc12 result_type=Rm endpoint_value=-0.34
mol=CN(C)CCNC(=O)c1cccc2c(NCCN(C)C)c3ccccc3nc12 result_type=Rm endpoint_value=-1.72
mol=CN1CCN(C(=O)c2cccc3c(N)c4ccccc4nc23)CC1 result_type=Rm endpoint_value=-1.29

###

Assay: pKa value for the side-chain cationic center
Assay type: physicochemical
RESULT TYPE: pKa

mol=CN(C)CCNC(=O)c1ccc2nc3ccccc3c(N)c2c1 endpoint_value=8.6
mol=CCN(CC)CCNC(=O)c1cccc2c(N)c3ccccc3nc12 endpoint_value=9.2
mol=Nc1c2ccccc2nc2c(C(=O)NCCN3CCOCC3)cccc12 endpoint_value=6.7
mol=Nc1c2ccccc2nc2c(C(=O)NCCNCCO)cccc12 endpoint_value=8.5
mol=Nc1c2ccccc2nc2c(C(=O)NCCc3ccccn3)cccc12 endpoint_value=5.9
mol=NCCNC(=O)c1cccc2c(N)c3ccccc3nc12 endpoint_value=9.1
mol=Nc1c2ccccc2nc2c(C(=O)NCCN3CCCCC3)cccc12 endpoint_value=8.9
